System: SNB-75 CNS
assayComment: NCI tumour cell line growth inhibition, 48 h
parameter: TGI

compound: Cc1cc(C(=O)NC(CCC(=O)O)C(=O)O)sc1CCC1CNc2nc(N)[nH]c(=O)c2C1 (centres undefined)
TGI: > 100 µM

Tell me measured TGI for O=[N+]([O-])C(=C1Nc2ccccc2N1)/C(Cl)=C(/Cl)N1CCOCC1 please. > 100 µM

Tell me measured TGI for CCN(CC)CCCNc1nc(=O)[nH]c(C)c1C(=O)Nc1ccc2c(c1)c1ccccc1n2CC please. > 100 µM

Tell me measured TGI for O=S(=O)(c1ccccc1)n1cc(C[P+](c2ccccc2)(c2ccccc2)c2ccccc2)c2ccccc21 please. 12.6 µM

Tell me measured TGI for COC(=O)C(CBr)CBr please. 31.4 µM

Tell me measured TGI for O=C1C(=O)c2ccccc2C(O)=C1CCCc1ccc(C2CCCCCC2)cc1 please. 52.2 µM
